Target: T1, IL-18 receptors on HEK-Blue IL-18 reporter cells (UniProt Q13478 19-541; O95256 20-599, limits assumed); also: unit not given here
T1 sequence (looked up) 1: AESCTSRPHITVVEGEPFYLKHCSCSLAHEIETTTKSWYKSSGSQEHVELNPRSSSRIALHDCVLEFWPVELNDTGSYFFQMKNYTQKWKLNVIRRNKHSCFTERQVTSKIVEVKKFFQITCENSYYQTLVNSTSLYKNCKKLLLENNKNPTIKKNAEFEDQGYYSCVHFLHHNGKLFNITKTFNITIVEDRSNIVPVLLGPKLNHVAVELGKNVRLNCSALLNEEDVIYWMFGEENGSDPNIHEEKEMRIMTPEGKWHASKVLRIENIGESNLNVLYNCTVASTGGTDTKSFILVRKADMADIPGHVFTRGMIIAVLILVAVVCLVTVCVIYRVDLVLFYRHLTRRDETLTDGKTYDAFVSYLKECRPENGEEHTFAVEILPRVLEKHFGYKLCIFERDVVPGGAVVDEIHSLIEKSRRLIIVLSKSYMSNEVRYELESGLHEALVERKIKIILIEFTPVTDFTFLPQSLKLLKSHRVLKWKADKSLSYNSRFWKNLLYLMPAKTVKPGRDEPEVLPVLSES
T1 sequence (looked up) 2: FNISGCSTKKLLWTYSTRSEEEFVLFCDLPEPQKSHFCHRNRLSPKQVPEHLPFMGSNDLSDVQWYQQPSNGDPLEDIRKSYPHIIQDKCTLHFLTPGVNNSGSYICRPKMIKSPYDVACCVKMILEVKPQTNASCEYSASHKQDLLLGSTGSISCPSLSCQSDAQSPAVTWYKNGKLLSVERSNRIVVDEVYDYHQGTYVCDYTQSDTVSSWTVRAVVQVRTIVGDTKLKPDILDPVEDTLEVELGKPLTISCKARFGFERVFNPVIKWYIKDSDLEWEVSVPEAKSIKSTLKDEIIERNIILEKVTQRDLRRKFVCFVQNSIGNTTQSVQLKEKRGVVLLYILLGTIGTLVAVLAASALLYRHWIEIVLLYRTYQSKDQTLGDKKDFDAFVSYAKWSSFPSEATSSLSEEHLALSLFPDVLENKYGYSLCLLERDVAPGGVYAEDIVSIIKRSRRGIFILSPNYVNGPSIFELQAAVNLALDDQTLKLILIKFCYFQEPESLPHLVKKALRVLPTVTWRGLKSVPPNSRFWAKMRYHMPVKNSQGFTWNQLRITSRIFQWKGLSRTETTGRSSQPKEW
Assay: cell-based or functional assay
Consider the following partition of reported Activity, No BP, DF-100000 into named classes: band 1: < 0.6; band 2: ≥ 0.6 and < 1; band 3: ≥ 1

Note: place this binder into its band. Item: IL-18 variant G3Q, E6H, S7Y, D23A, R27S, D54S, S55R, T63F, N91F, R104Q (ligand) YFQKLHYKLSVIRNLNDQVLFIAQGNSPLFEDMTDSDMRDNAPRTIFIISMYKSRQPRGMAVFISVKSEKISTLSSENKIISFKEMNPPDFIKDTKSDIIFFQQSVPGHDNKMQFESSSYEGYFLASEKERDLFKLILKKEDELGDRSIMFTVQNED
band 1

Note: place this binder into its band. Item: IL-18 variant G3Y, E6S, K53S, D54W, S55L, N91I (ligand) YFYKLSSKLSVIRNLNDQVLFIDQGNRPLFEDMTDSDMRDNAPRTIFIISMYSWLQPRGMAVTISVKSEKISTLSSENKIISFKEMNPPDIIKDTKSDIIFFQRSVPGHDNKMQFESSSYEGYFLASEKERDLFKLILKKEDELGDRSIMFTVQNED
band 2

Note: place this binder into its band. Item: IL-18 variant G3E, E6H, R27S, D54A, S55T, T63S, N91F, R104S (ligand) YFEKLHSKLSVIRNLNDQVLFIDQGNSPLFEDMTDSDMRDNAPRTIFIISMYKATQPRGMAVSISVKSEKISTLSSENKIISFKEMNPPDFIKDTKSDIIFFQSSVPGHDNKMQFESSSYEGYFLASEKERDLFKLILKKEDELGDRSIMFTVQNED
band 3

Note: place this binder into its band. Item: IL-18 variant G3P, E6H, D54A, S55P, Q56K, T63S, N91M (ligand) YFPKLHSKLSVIRNLNDQVLFIDQGNRPLFEDMTDSDMRDNAPRTIFIISMYKAPKPRGMAVSISVKSEKISTLSSENKIISFKEMNPPDMIKDTKSDIIFFQRSVPGHDNKMQFESSSYEGYFLASEKERDLFKLILKKEDELGDRSIMFTVQNED
band 3

Note: place this binder into its band. Item: IL-18 variant G3T, E6Q, K53G, D54G, S55H, T63A, S65T, N91R, R104Q (ligand) YFTKLQSKLSVIRNLNDQVLFIDQGNRPLFEDMTDSDMRDNAPRTIFIISMYGGHQPRGMAVAITVKSEKISTLSSENKIISFKEMNPPDRIKDTKSDIIFFQQSVPGHDNKMQFESSSYEGYFLASEKERDLFKLILKKEDELGDRSIMFTVQNED
band 1

Note: place this binder into its band. Item: IL-18 variant G3R, E6D, D54A, S55Q, T63S, N91K, R104P (ligand) YFRKLDSKLSVIRNLNDQVLFIDQGNRPLFEDMTDSDMRDNAPRTIFIISMYKAQQPRGMAVSISVKSEKISTLSSENKIISFKEMNPPDKIKDTKSDIIFFQPSVPGHDNKMQFESSSYEGYFLASEKERDLFKLILKKEDELGDRSIMFTVQNED
band 1

Note: place this binder into its band. Item: IL-18 variant G3P, E6K, K53M, D54W, S55N, T63S, N91I (ligand) YFPKLKSKLSVIRNLNDQVLFIDQGNRPLFEDMTDSDMRDNAPRTIFIISMYMWNQPRGMAVSISVKSEKISTLSSENKIISFKEMNPPDIIKDTKSDIIFFQRSVPGHDNKMQFESSSYEGYFLASEKERDLFKLILKKEDELGDRSIMFTVQNED
band 2

Note: place this binder into its band. Item: IL-18 variant G3I, E6Q, N91M, R104Y (ligand) YFIKLQSKLSVIRNLNDQVLFIDQGNRPLFEDMTDSDMRDNAPRTIFIISMYKDSQPRGMAVTISVKSEKISTLSSENKIISFKEMNPPDMIKDTKSDIIFFQYSVPGHDNKMQFESSSYEGYFLASEKERDLFKLILKKEDELGDRSIMFTVQNED
band 3

Note: place this binder into its band. Item: IL-18 variant E6D, D54T, S55W, T63S, N91S, R104T (ligand) YFGKLDSKLSVIRNLNDQVLFIDQGNRPLFEDMTDSDMRDNAPRTIFIISMYKTWQPRGMAVSISVKSEKISTLSSENKIISFKEMNPPDSIKDTKSDIIFFQTSVPGHDNKMQFESSSYEGYFLASEKERDLFKLILKKEDELGDRSIMFTVQNED
band 3

Note: place this binder into its band. Item: IL-18 variant G3P, E6R, D54W, S55Q, T63S, N91T, R104H (ligand) YFPKLRSKLSVIRNLNDQVLFIDQGNRPLFEDMTDSDMRDNAPRTIFIISMYKWQQPRGMAVSISVKSEKISTLSSENKIISFKEMNPPDTIKDTKSDIIFFQHSVPGHDNKMQFESSSYEGYFLASEKERDLFKLILKKEDELGDRSIMFTVQNED
band 2

Data credit: patent US20240182536A1
